# Assay target: T1, IL4R-Fc-biotin (UniProt P24394 26-232, biotinylated (sites not given))
# T1 construct: also called IL4R-Fc protein (Sinobiological Co., Ltd., 10402-H02H); not shown: Fc part
# T1 sequence (looked up): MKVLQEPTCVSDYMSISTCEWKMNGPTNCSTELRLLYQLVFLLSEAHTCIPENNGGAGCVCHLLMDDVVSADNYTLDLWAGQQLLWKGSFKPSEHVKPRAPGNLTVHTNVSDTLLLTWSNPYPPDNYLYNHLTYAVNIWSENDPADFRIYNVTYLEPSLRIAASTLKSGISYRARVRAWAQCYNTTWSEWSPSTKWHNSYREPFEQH
# Experiment description: competition ELISA: IL4 coated, IL4R-Fc-biotin (0.4 µg/ml) with antibody dilutions
# IC50 per entry
Respond numerically; units are µg/mL and should not be typed.

# annotated cases, reported IC50 shown
BA420 (antibody, IgG4, V domains shown, also called IL4RQ24-BA420) VH: QVQLVESGGGAVQPGRSLRVSCAASGFTFSSHGMDWVRQVPGKGLEWVAVISYDGKKKYYADSVKGRFTISRDNSKNTLYLQMNSLRAEDTAIYYCVKESRYYYGMDVWGQGTTVTVSS VL: DIVMTQSPSTLSASVGDRVTITCRASPSISSWLAWYQQKPGKAPKVLIYKSSRLESGVPSRFSGNGSGTEFTLTISSLQPDDFATYYCQQYNGYSWTFGQGTKVEIKR    0.334
IL4R-BA173-IgG4 (antibody, V domains shown, also called IL4RQ6-BA173) VH: QVQLVESGGGVVQPGRSLRLSCAASGFTFSSYAMHWVRQAPGKGLEWVAVISYDGSNKYYADSVKGRFTISRDNSKNTLYLQMNSLRAEDTAVYYCARGLTTVRGVLYWGQGTLVTVSS VL: DIVMTQSPSTLSASVGDRVTITCRASQSISTRLAWYQQKPGKAPKLLVYWASSLESGVPSRFSGSGSGTEFTLAISSLQPDDFGTYYCQQYTSYSWTFGQGTKLEIKR    0.354

Kindly consider the entry below.
Would you kindly share the measured IC50 for BA034 (antibody, IgG4, V domains shown, also called IL4RQ14-BA034) VH: QVQLVESRGGAVQPGRSLRVSCAASGFTFSSHGMDWVRQVPGKGLEWVAVISYDGKKKYYADSVKGRFTISRDNSKNTLYLQMNSLRAEDTAIYYCVKESRYYYGMDVWGQGTTVTVSS VL: DIQMTQSPSTLSASVGDRVTITCRASQSFNSWLAWYQQKPGKAPKLLIYKSSRLESGVPSRFSGSGSGTEFTLTISSLQPDDFATYYCQQYNGYSWTFGQGTKVEIKR ?
0.71
